Ref: ChEMBL document CHEMBL3286290

Experiment: Cytotoxicity against human HeLa cells assessed as cell viability at 100 ug/ml after 72 hrs by MTT assay
Assay type: cell-based
Conditions: read-out: Activity
Property label: viability at 72 h, 100 ug/ml (%)

                           smiles_structure  endpoint_unit  reported_value
0  Cl.N=C(N)c1ccc(SCCOCCSc2ccc(C(=N)N)cc2)cc1              %             7.4
1  Cl.c1cc(C2=NCCN2)ccc1OCCSCCOc1ccc(C2=NCCN2)cc1              %            41.8
2  Cl.N=C(NC1CCCCC1)c1ccc(OCCSCCOc2ccc(C(=N)NC3CCCCC3)cc2)cc1              %            66.9
3  CCCCNC(=N)c1ccc(OCCSCCOc2ccc(C(=N)NCCCC)cc2)cc1.Cl              %            57.2
